System: Plasmodium falciparum
Test: Antiplasmodial activity against multidrug-resistant Plasmodium falciparum VS/1 by [3H]hypoxanthine incorporation assay
Type: functional, organism-based
pIC50: −log10 of the molar value.
YES means recorded pIC50 is 7 or above; NO means it is below 7.

# count of solved cases: 5
compound	category
CCCCN(CCCC)CC(O)c1cc(Cl)cc2c1-c1ccc(Cl)cc1/C2=C/c1ccc(Cl)cc1 (stereo not given)	YES
CCCCN(CCCC)CCC(O)c1cc2c(Cl)cc(Cl)cc2c2cc(C(F)(F)F)ccc12 (stereo not given)	YES
CCNCc1cc(Nc2ccnc3cc(Cl)ccc23)ccc1O	YES
COc1cc(NC(C)CCCN)c2ncccc2c1 (stereo not given)	NO
CCc1nc(N)nc(N)c1-c1ccc(Cl)cc1	NO

Could you verify whether the entry `CCN(CC)Cc1cc(Nc2ccnc3cc(Cl)ccc23)ccc1O` shows pIC50 of no less than 7?
YES

---

System: Plasmodium falciparum
Test: Antiplasmodial activity against multidrug-resistant Plasmodium falciparum VS/1 by [3H]hypoxanthine incorporation assay
Assay type: functional, organism-based
Reported IC50 values are given for each entry in this list.
Return type: number; implicit unit nM.

Solved entries (count: 3):
compound	IC50 [nM]
Clc1ccc2c(N3CCN(CCCN4CCN(c5ccnc6cc(Cl)ccc56)CC4)CC3)ccnc2c1 [PIPERAQUINE]	88
CC1(C)N=C(N)N=C(N)N1c1ccc(Cl)c(Cl)c1 [CHLORCYCLOGUANIL]	79
C=C[C@H]1CN2CC[C@H]1C[C@H]2[C@H](O)c1ccnc2ccc(OC)cc12 [QUININE]	133

Now look at this entry.
Sample CN(Cc1cnc2nc(N)nc(N)c2n1)c1ccc(C(=O)N[C@@H](CCC(=O)O)C(=O)O)cc1 [METHOTREXATE] ; IC50 observed: 63
